- Test system: MDA-MB-231
- protocol_text: NCI tumour cell line growth inhibition, 48 h
Counter-ions that a name gives are not always drawn. Active and inactive are the calls of the source. Cut-off read from the data, not from the text of the source: active = GI50 up to about 1.1 µM and inactive = higher.
observation_type: GI50

Completed entries (count: 3):
molecule: O=C(Nc1ccccc1)c1cc(S(=O)(=O)n2ccnc2O)c(S)cc1Cl
observation_type: GI50
observed: > 100 µM (inactive)
--
molecule: CC1=NN(c2nc(N)nc(/C(C#N)=C/c3ccncc3)n2)C(C)(C)C1
observation_type: GI50
observed: > 100 µM (inactive)
--
molecule: CN(C)CCCSc1nc2c(c(=N)n1-c1ccccc1)c(=S)n(-c1ccccc1)c(=S)n2-c1ccccc1
observation_type: GI50
observed: 1.61 µM (inactive)

Input: Notebook: pull reported GI50 for MDA-MB-231, entry "Clc1ccc(-c2nn3c(CCCCCCCCc4nnc5sc(-c6ccc(Cl)cc6)nn45)nnc3s2)cc1"
Output: 27 µM (inactive)

Input: Same lookup for c1ccc([C@H]2CN3CCSC3=N2)cc1 [LEVAMISOLE HYDROCHLORIDE] , please.
Output: > 100 µM (inactive)

Attribution: ChEMBL document CHEMBL1201862
